Every entry's value here was drawn from patent US20230151068A1.

- tested.target: biotinylated His-Avi-TEAD (194-411) (UniProt P28347)
- test.protocol: SSM screen, enrichment after two rounds of sorting
recorded.metric: enrichment score
Response field accepts a number only; no unit should be typed.

Examples from the recorded data:
binder="GSPDEYIERAKECCKKGRIQCCLRYFEESGDPNVMLICLFCP (designed binder) [D16R variant of SEQ ID NO: 1]" observed_measurement=-5.59
binder="GSPDEYIERAKQCCKKGDIQCCLRYFEESGDPNVMLICLFCP (designed binder) [E10Q variant of SEQ ID NO: 1]" observed_measurement=-1.94

Please look at the following binder next.
What value of measured enrichment score is listed for GSPDEYIERKKECCKKGDIQCCLRYFEESGDPNVMLICLFCP (designed binder) [A08K variant of SEQ ID NO: 1] ?
-4.73
